Catalogue of CBF (Coronary Blood Flow), % maximum variation from the initial value readings, one per entry.
# Test system: narcotized dog
# Run description: Haemodynamic parameters in the narcotized dog (test C)
# Type: in vivo
# Test conditions: 0.1 mg/kg i.v.

Observe how each entry below is paired with its result.
[[record]]
molecule = "COCC(=O)O[C@]1(CCN(C)CCc2ccc(OC)c(OC)c2)CCc2cc(F)ccc2[C@@H]1C(C)C [B]"
target_or_test_system = "narcotized dog"
reported = "+100 Δ %"

[[record]]
molecule = "COCC(=O)O[C@@]1(CCN(C)CCc2ccc(OC)c(OC)c2)CCc2cc(F)ccc2[C@H]1C(C)C"
target_or_test_system = "narcotized dog"
reported = "+58 Δ %"

[[record]]
molecule = "COCC(=O)O[C@]1(CCN(C)CCc2ccc(OC)c(OC)c2)CCc2cc(OC)c(OC)cc2[C@@H]1C(C)C (relative stereo)"
target_or_test_system = "narcotized dog"
reported = "+65 Δ %"

[[record]]
molecule = "COc1ccc(CCN(C)CC[C@@]2(OC(C)=O)CCc3cc(OC)c(OC)cc3[C@@H]2C(C)C)cc1OC (relative stereo)"
target_or_test_system = "narcotized dog"
reported = "+58 Δ %"


Okay, next one:
Please state recorded CBF (Coronary Blood Flow), % maximum variation from the initial value (tested on narcotized dog) of COCC(=O)O[C@]1(CCN(C)CCc2ccc(OC)c(OC)c2)CCc2cc(F)ccc2[C@@H]1C(C)C (relative stereo) [A] +93 Δ %

###

# Test system: ^3 H-nifedipine (or ^3 H-nitrendipine) receptor binding on homogenates or partially-cleaned membranes of rabbit or guinea pig heart
# Run description: ^3 H-Nifedipine binding determinations (test A)
# Test conditions: nifedipine established as 100%
Reported endpoint: % max inhib. (maximum inhibition of specific binding)
The answer consists of two parts: a number and, after it, its unit.

Could you tell me which % max inhib. (maximum inhibition of specific binding) is on file for COCC(=O)O[C@]1(CCN(C)CCc2ccc(OC)c(OC)c2)CCc2cc(F)ccc2[C@@H]1C(C)C (relative stereo) [A] ? 77%

Item COc1ccc(CCN(C)CC[C@@]2(OC(C)=O)CCc3cc(OC)c(OC)cc3[C@@H]2C(C)C)cc1OC (relative stereo) [D] has what recorded % max inhib. (maximum inhibition of specific binding)? 82%

Which value of % max inhib. (maximum inhibition of specific binding) has been reported for COCC(=O)O[C@]1(CCN(C)CCc2ccc(OC)c(OC)c2)CCc2cc(OC)c(OC)cc2[C@@H]1C(C)C (relative stereo) [E] in the records? 88%

Need % max inhib. (maximum inhibition of specific binding), item COCC(=O)O[C@@]1(CCN(C)CCc2ccc(OC)c(OC)c2)CCc2cc(F)ccc2[C@H]1C(C)C [C] 73%

Would you mind telling me what % max inhib. (maximum inhibition of specific binding) value was observed for COCC(=O)O[C@]1(CCN(C)CCc2ccc(OC)c(OC)c2)CCc2cc(F)ccc2[C@@H]1C(C)C [B] ? 100%
